- ASSAY OVERVIEW: Oral bioavailability in rat at 5 mg/kg, po
- Type: ADME, organism-based
- CONDITION PARAMETERS: in vivo

SMILES TEXT: CN[C@H]1CC[C@@H](c2ccc(Cl)c(Cl)c2)c2ccc(S(N)(=O)=O)cc21
bioavailability: 44%

* * *

Entries and their pKa
- ASSAY OVERVIEW: Dissociation constant, pKa of the compound
- Assay type: physicochemical

SMILES TEXT: CNC(=O)c1ccc2c(c1)[C@@H](NC)CC[C@H]2c1ccc(Cl)c(Cl)c1
pKa: 8.8

SMILES TEXT: CN[C@H]1CC[C@@H](c2ccc(Cl)c(Cl)c2)c2ccc(C(N)=O)cc21
pKa: 8.5

SMILES TEXT: CN[C@H]1CC[C@@H](c2ccc(Cl)c(Cl)c2)c2ccc(S(N)(=O)=O)cc21
pKa: 8.4

SMILES TEXT: CN[C@H]1CC[C@@H](c2ccc(Cl)c(Cl)c2)c2ccccc21
pKa: 9.3

* * *

- ASSAY OVERVIEW: Tmax in rat at 1 mg/kg, iv or 1 mg/kg, po
- Assay type: ADME, organism-based
- CONDITION PARAMETERS: in vivo

SMILES TEXT: CN[C@H]1CC[C@@H](c2ccc(Cl)c(Cl)c2)c2ccccc21
Tmax (h): 4

* * *

- ASSAY OVERVIEW: Distribution coefficient of the compound, log D
- Assay type: physicochemical
- CONDITION PARAMETERS: octanol/water
Entries and their logD

SMILES TEXT: CN[C@H]1CC[C@@H](c2ccc(Cl)c(Cl)c2)c2ccc(S(N)(=O)=O)cc21
logD: 2.3

SMILES TEXT: CN[C@H]1CC[C@@H](c2ccc(Cl)c(Cl)c2)c2ccc(C(N)=O)cc21
logD: 2.3

SMILES TEXT: CN[C@H]1CC[C@@H](c2ccc(Cl)c(Cl)c2)c2ccc(S(=O)(=O)NC)cc21
logD: 2.8

SMILES TEXT: CNC(=O)c1ccc2c(c1)[C@@H](NC)CC[C@H]2c1ccc(Cl)c(Cl)c1
logD: 2.8

* * *

- ASSAY SYSTEM: Sodium-dependent noradrenaline transporter (Homo sapiens)
- Sequence (P23975 whole entry): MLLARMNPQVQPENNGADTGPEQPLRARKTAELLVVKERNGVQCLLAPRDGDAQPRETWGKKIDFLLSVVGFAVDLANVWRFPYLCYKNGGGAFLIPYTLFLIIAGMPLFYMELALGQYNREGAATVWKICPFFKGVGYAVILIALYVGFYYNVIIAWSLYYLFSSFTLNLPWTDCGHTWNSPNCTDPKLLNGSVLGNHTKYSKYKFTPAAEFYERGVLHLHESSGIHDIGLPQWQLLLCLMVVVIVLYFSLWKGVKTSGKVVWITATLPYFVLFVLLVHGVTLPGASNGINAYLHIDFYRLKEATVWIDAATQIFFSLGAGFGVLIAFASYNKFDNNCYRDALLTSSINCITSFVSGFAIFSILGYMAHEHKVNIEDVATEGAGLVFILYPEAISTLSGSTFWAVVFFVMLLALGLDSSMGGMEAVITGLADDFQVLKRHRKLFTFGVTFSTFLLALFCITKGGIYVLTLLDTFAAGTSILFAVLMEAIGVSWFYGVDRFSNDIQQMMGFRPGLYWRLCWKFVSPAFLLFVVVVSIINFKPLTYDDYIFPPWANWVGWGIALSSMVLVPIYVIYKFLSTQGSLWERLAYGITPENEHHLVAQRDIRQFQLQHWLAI
- ASSAY OVERVIEW: Inhibition of noradrenaline re-uptake at human noradrenaline transporter expressed in HEK293 cells

COMPOUND: CN[C@H]1CC[C@@H](c2ccc(Cl)c(Cl)c2)c2cc(S(N)(=O)=O)ccc21
IC50, nM: 2100
//
COMPOUND: CN[C@H]1CC[C@@H](c2ccc(Cl)c(Cl)c2)c2cc(S(C)(=O)=O)ccc21
IC50, nM: 4200
//
COMPOUND: CN[C@H]1CC[C@@H](c2ccc(Cl)c(Cl)c2)c2ccc(C[S+](C)[O-])cc21 (some centres undefined)
IC50, nM: 450
//
COMPOUND: CN[C@H]1CC[C@@H](c2ccc(Cl)c(Cl)c2)c2ccc(CNS(C)(=O)=O)cc21
IC50, nM: 960
//
COMPOUND: CNC(=O)c1ccc2c(c1)[C@H](c1ccc(Cl)c(Cl)c1)CC[C@@H]2NC
IC50, nM: 5000
//
COMPOUND: CN[C@H]1CC[C@@H](c2ccc(Cl)c(Cl)c2)c2cc(C(=O)O)ccc21
IC50, nM: 20300
//
COMPOUND: CN[C@H]1CC[C@@H](c2ccc(Cl)c(Cl)c2)c2ccc([N+](=O)[O-])cc21
IC50, nM: 2900
//
COMPOUND: CN[C@H]1CC[C@@H](c2ccc(Cl)c(Cl)c2)c2ccc(C(N)=O)cc21
IC50, nM: 410
//
COMPOUND: CN[C@H]1CC[C@H](c2ccc(Cl)c(Cl)c2)c2ccc(S(N)(=O)=O)cc21
IC50, nM: 11
//
COMPOUND: CN[C@H]1CC[C@@H](c2ccc(Cl)c(Cl)c2)c2ccc(CO)cc21
IC50, nM: 980
//
COMPOUND: CN[C@@H]1CC[C@H](c2ccc(Cl)c(Cl)c2)c2ccc(S(N)(=O)=O)cc21
IC50, nM: 310
//
COMPOUND: CN[C@H]1CC[C@@H](c2ccc(Cl)c(Cl)c2)c2ccc(S(=O)(=O)N(C)C)cc21
IC50, nM: 2700
//
COMPOUND: CN[C@H]1CC[C@@H](c2ccc(Cl)c(Cl)c2)c2cc(C(=O)O)c(NS(C)(=O)=O)cc21
IC50, nM: 9100
//
COMPOUND: CN[C@H]1CC[C@@H](c2ccc(Cl)c(Cl)c2)c2ccc(CC(N)=O)cc21
IC50, nM: 920
